Below: a set of entries, each annotated with reported %Fe 30min (ascorbate oxidation, Fe = 100%), průměr (mean).
method-notes: Ascorbate oxidation assay (redox activity of iron complexes);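 for %Fe 30min (ascorbate oxidation, Fe = 100%), průměr (mean): IBE 1 means iron-binding equivalents giving fully coordinated iron-chelator complexes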
Assay type: biochemical
run-conditions: sheet IBE 1; 30min; Fe 100%; mean
Field: numeric (%). Do not append units.

Here are 4 molecules together with their reported answers.
molecule: CCNC(=O)NN=C(c1ccccc1)c1ccccn1 [Z-Bp4eS, 2-benzoylpyridine 4-ethylsemicarbazone]
data-value: 102.1

molecule: CCN=CNN=C(c1ccccc1)c1ccccn1
data-value: 106.5

molecule: CC(=O)N(O)CCCCCNC(=O)CCC(=O)N(O)CCCCCNC(=O)CCC(=O)N(O)CCCCCN [DFO, deferoxamine, reference compound]
data-value: 34.33

molecule: CCNC(=O)NN=C(c1ccccc1)c1ccccn1 [E-Bp4eS, 2-benzoylpyridine 4-ethylsemicarbazone]
data-value: 115.7

I would be grateful if you could share the reported %Fe 30min (ascorbate oxidation, Fe = 100%), průměr (mean) for O=C(O)CN(CCN(CC(=O)O)CC(=O)O)CC(=O)O [EDTA, reference compound] .
416.7

I would be grateful if you could share the reported %Fe 30min (ascorbate oxidation, Fe = 100%), průměr (mean) for CCNC(=S)NN=C(c1ccccc1)c1ccccn1 .
274.4

----------
Below: a set of entries, each annotated with reported Therapeutic index, IC50 non-cancerous cells / IC50 neoplastic cells.
Test system: MCF-7 human breast adenocarcinoma cells
method-notes: MTT cytotoxicity assay, MCF-7 cells
Format: cell-based
run-conditions: 3T3/MCF-7
Respond using a number only.

compound: CCN=CNN=C(c1ccccc1)c1ccccn1 [Bp4eA]
tested-system: MCF-7 human breast adenocarcinoma cells
data-value: 17.3

Let's switch to this compound now.
I would be grateful if you could share the reported Therapeutic index, IC50 non-cancerous cells / IC50 neoplastic cells for CCNC(=S)NN=C(c1ccccc1)c1ccccn1 [Bp4eT] .
87.3

----------
method-notes: MTT cytotoxicity assay, 3T3 cells
Type: cell-based, mouse
run-conditions: mouse, 3T3 mouse embryo fibroblasts, 3T3; 10 000 b/j; koncentrace 3 nM; mean; read-out: MTT viability (0 = 100), průměr
measured-parameter: viability at 72 h, 3 nM (%)
Field: numeric (%). Do not append units.

I would be grateful if you could share the reported viability at 72 h, 3 nM for CCNC(=S)NN=C(c1ccccc1)c1ccccn1 .
102

----------
System: caspases 3/7
method-notes: Caspase activity, luminescent kit, caspases 3/7
Assay type: cell-based, human
run-conditions: 3 hodiny; mean, normalised to viability
Below: a set of entries, each annotated with reported kaspáza (3) a 7, % kontroly.
Field: numeric (% kontroly). Do not append units.

compound: CCNC(=O)NN=C(c1ccccc1)c1ccccn1 [E-Bp4eS, 2-benzoylpyridine 4-ethylsemicarbazone]
u: % kontroly
kaspáza (3) a 7, % kontroly: 106.30

compound: CCN=CNN=C(c1ccccc1)c1ccccn1
u: % kontroly
kaspáza (3) a 7, % kontroly: 103.19

compound: CCNC(=O)NN=C(c1ccccc1)c1ccccn1 [Z-Bp4eS, 2-benzoylpyridine 4-ethylsemicarbazone]
u: % kontroly
kaspáza (3) a 7, % kontroly: 100.57

Let's switch to this compound now.
I would be grateful if you could share the reported kaspáza (3) a 7, % kontroly for CCNC(=S)NN=C(c1ccccc1)c1ccccn1 .
101.92

----------
System: labile iron pool of MCF-7 cells
method-notes: Calcein-AM assay, access to the labile iron pool
Format: cell-based, human
Design: unit not given here
run-conditions: 10 μM, 60 sec, mean (průměr)
measured-parameter: Calcein fluorescence

Here are 3 compounds together with their reported answers.
compound: CCN=CNN=C(c1ccccc1)c1ccccn1
measured-parameter: Calcein fluorescence
data-value: 5.072

compound: CCNC(=O)NN=C(c1ccccc1)c1ccccn1 [E-Bp4eS, 2-benzoylpyridine 4-ethylsemicarbazone]
measured-parameter: Calcein fluorescence
data-value: 3.596

compound: CCNC(=S)NN=C(c1ccccc1)c1ccccn1
measured-parameter: Calcein fluorescence
data-value: 40.360

I would be grateful if you could share the reported Calcein fluorescence for CCNC(=O)NN=C(c1ccccc1)c1ccccn1 [Z-Bp4eS, 2-benzoylpyridine 4-ethylsemicarbazone] .
8.244

----------
Test system: HL-60 human promyelocytic leukemia cells
method-notes: MTT cytotoxicity assay, HL-60 cells
Assay type: cell-based
run-conditions: Homo sapiens, HL-60, HL-60; 10 000 b/j; MTT; single experiment (date); sheet E-Bp4eS; read-out: IC50
measured-parameter: pIC50
Please report pIC50 as the negative decimal logarithm of the molar concentration, giving only the number.

HL-60 human promyelocytic leukemia cells / pIC50 / CCNC(=O)NN=C(c1ccccc1)c1ccccn1 : value?
3.80

----------
Below: a set of entries, each annotated with reported Absorbance (ascorbate, λ = 265 nm).
method-notes: Ascorbate oxidation assay (redox activity of iron complexes)
Assay type: biochemical
run-conditions: IBE 0.1, čas 0 (time 0), mean (průměr)
Respond using a number only.

Here are 5 compounds together with their reported answers.
compound: CCNC(=S)NN=C(c1ccccc1)c1ccccn1
Absorbance (ascorbate, λ = 265 nm): 0.839
--
compound: O=C(O)CN(CCN(CC(=O)O)CC(=O)O)CC(=O)O [EDTA, reference compound]
Absorbance (ascorbate, λ = 265 nm): 0.8103
--
compound: CCNC(=O)NN=C(c1ccccc1)c1ccccn1 [E-Bp4eS, 2-benzoylpyridine 4-ethylsemicarbazone]
Absorbance (ascorbate, λ = 265 nm): 0.8403
--
compound: CC(=O)N(O)CCCCCNC(=O)CCC(=O)N(O)CCCCCNC(=O)CCC(=O)N(O)CCCCCN [DFO, deferoxamine, reference compound]
Absorbance (ascorbate, λ = 265 nm): 0.8374
--
compound: CCN=CNN=C(c1ccccc1)c1ccccn1
Absorbance (ascorbate, λ = 265 nm): 0.8401

I would be grateful if you could share the reported Absorbance (ascorbate, λ = 265 nm) for CCNC(=O)NN=C(c1ccccc1)c1ccccn1 [Z-Bp4eS, 2-benzoylpyridine 4-ethylsemicarbazone] .
0.7817

----------
System: A549 human lung adenocarcinoma cells
method-notes: MTT cytotoxicity assay, A549 cells
Type: cell-based
run-conditions: H9c2/A549
measured-parameter: Therapeutic index, IC50 non-cancerous cells / IC50 neoplastic cells
Respond using a number only.

I would be grateful if you could share the reported Therapeutic index, IC50 non-cancerous cells / IC50 neoplastic cells for CCN=CNN=C(c1ccccc1)c1ccccn1 .
2.0

I would be grateful if you could share the reported Therapeutic index, IC50 non-cancerous cells / IC50 neoplastic cells for CCNC(=O)NN=C(c1ccccc1)c1ccccn1 [Z-Bp4eS, 2-benzoylpyridine 4-ethylsemicarbazone] .
0.6

I would be grateful if you could share the reported Therapeutic index, IC50 non-cancerous cells / IC50 neoplastic cells for CCNC(=S)NN=C(c1ccccc1)c1ccccn1 .
0.9

I would be grateful if you could share the reported Therapeutic index, IC50 non-cancerous cells / IC50 neoplastic cells for CCNC(=O)NN=C(c1ccccc1)c1ccccn1 [E-Bp4eS, 2-benzoylpyridine 4-ethylsemicarbazone] .
3.6

----------
method-notes: MTT cytotoxicity assay, 3T3 cells
Type: cell-based, mouse
run-conditions: mouse, 3T3 mouse embryo fibroblasts, 3T3; 10 000 b/j; koncentrace 100 nM; mean; read-out: MTT viability (0 = 100), průměr
measured-parameter: viability at 72 h, 100 nM (%)
Field: numeric (%). Do not append units.

I would be grateful if you could share the reported viability at 72 h, 100 nM for CCNC(=S)NN=C(c1ccccc1)c1ccccn1 .
72.8

----------
method-notes: Ascorbate oxidation assay (redox activity of iron complexes);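 for %Fe 30min: ascorbate oxidation as % of the Fe control (Fe 100%): IBE 0.1 means iron-binding equivalents with iron in excess over chelator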
Assay type: biochemical
run-conditions: IBE 0.1, 30 min, mean (průměr)
Below: a set of entries, each annotated with reported %Fe 30min: ascorbate oxidation as % of the Fe control (Fe 100%).
Respond with the figure and its unit, in that order.

compound: CCNC(=O)NN=C(c1ccccc1)c1ccccn1 [E-Bp4eS, 2-benzoylpyridine 4-ethylsemicarbazone]
data-value: 110.6%
//
compound: CCN=CNN=C(c1ccccc1)c1ccccn1
data-value: 102.5%
//
compound: O=C(O)CN(CCN(CC(=O)O)CC(=O)O)CC(=O)O [EDTA, reference compound]
data-value: 160.9%
//
compound: CCNC(=S)NN=C(c1ccccc1)c1ccccn1
data-value: 114.3%
//
compound: CC(=O)N(O)CCCCCNC(=O)CCC(=O)N(O)CCCCCNC(=O)CCC(=O)N(O)CCCCCN [DFO, deferoxamine, reference compound]
data-value: 95.6%

Let's switch to this compound now.
I would be grateful if you could share the reported %Fe 30min: ascorbate oxidation as % of the Fe control (Fe 100%) for CCNC(=O)NN=C(c1ccccc1)c1ccccn1 [Z-Bp4eS, 2-benzoylpyridine 4-ethylsemicarbazone] .
99.02%

----------
Below: a set of entries, each annotated with reported viability at 72 h, 100 μM.
method-notes: MTT cytotoxicity assay, 3T3 cells
Assay type: cell-based, mouse
run-conditions: mouse, 3T3 mouse embryo fibroblasts, 3T3; 10 000 b/j; koncentrace 100 μM; mean; read-out: MTT viability (0 = 100), průměr

smiles-entry: CCN=CNN=C(c1ccccc1)c1ccccn1
measured-parameter: viability at 72 h, 100 μM
data-value: 87.3%

Let's switch to this compound now.
I would be grateful if you could share the reported viability at 72 h, 100 μM for CCNC(=O)NN=C(c1ccccc1)c1ccccn1 .
83.9%

src = paper PMC4604124
